Property: Kb; scope: individual compounds
Biological target: LHRH receptor (Rattus norvegicus, UniProt P30969)
Construct: endogenous in cells
Sequence (P30969 1-327): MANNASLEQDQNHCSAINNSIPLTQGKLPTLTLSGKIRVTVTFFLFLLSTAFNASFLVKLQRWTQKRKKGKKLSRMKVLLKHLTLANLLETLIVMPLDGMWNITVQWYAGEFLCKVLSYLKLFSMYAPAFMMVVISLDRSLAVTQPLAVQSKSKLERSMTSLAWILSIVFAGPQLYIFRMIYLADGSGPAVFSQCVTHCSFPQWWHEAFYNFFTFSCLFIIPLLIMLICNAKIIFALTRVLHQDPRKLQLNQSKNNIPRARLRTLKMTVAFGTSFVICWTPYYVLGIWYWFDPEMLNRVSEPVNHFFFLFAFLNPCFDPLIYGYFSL
Experiment: in vitro LHRH antagonist potency (pA2) against the agonist leuprolide
Assay type: cell-based
Conditions: negative logarithm of the antagonist concentration which shifts the response curve produced by the agonist leuprolide to two-fold higher concentration
*1 amine or outer side, *2 acyl side, *3 side chain or, on linkers, in order; H or OH if unused. Where a SMILES comes first, the peptide text is derived from it. Side-chain parts run from the residue outwards. [ ]: non-standard residue; d: D form. The star is where a group is joined. X3 = O=Cn1cc(C[C@@H](NC(=O)C2=C[C@@H](O)[C@@H](O)[C@H](O)C2)C(=O)*)c2ccccc21; Shikimoyl = O=C(C1=C[C@@H](O)[C@@H](O)[C@H](O)C1)*; Biotin = O=C1N[C@H]2[C@H](CS[C@H]2CCCCC(=O)*)N1; dPhe(4-Cl) = N[C@H](Cc1ccc(Cl)cc1)C(=O)O; d2Nal = N[C@H](Cc1ccc2ccccc2c1)C(=O)O; Lys(iPr) = CC(C)NCCCC[C@H](N)C(=O)O; NMeY = CN[C@@H](Cc1ccc(O)cc1)C(=O)O; Ethylenediamine = C(CN[*:2])N[*:1]; hArg = N=C(N)NCCCC[C@H](N)C(=O)O; d3Pal = N[C@H](Cc1cccnc1)C(=O)O; Nicotinoyl = O=C(c1cccnc1)*; 2Furoyl = O=C(c1ccco1)*; CO = O=C([*:1])[*:2]; Ahx = NCCCCCC(=O)O; βAla = NCCC(=O)O

{"Compound": "CC(=O)N[C@H](Cc1ccc2ccccc2c1)C(=O)N[C@H](Cc1ccc(Cl)cc1)C(=O)N[C@H](Cc1cccnc1)C(=O)N[C@@H](CO)C(=O)N(C)[C@@H](Cc1ccc(O)cc1)C(=O)N[C@H](CCCCNC(=O)CNC(=O)CCCC[C@@H]1SC[C@@H]2NC(=O)N[C@@H]21)C(=O)N[C@@H](CC(C)C)C(=O)N[C@@H](CCCCNC(C)C)C(=O)N1CCC[C@H]1C(=O)N[C@H](C)C(N)=O [Example 64] (Ac-[d2Nal][dPhe(4-Cl)][d3Pal]S[NMeY][dK]([Gly-Biotin])L[Lys(iPr)]P[dA]-NH2)", "Experimental endpoint": "Kb", "Endpoint result": "0.0115 nM"}
{"Compound": "CC(=O)N[C@H](Cc1ccc2ccccc2c1)C(=O)N[C@H](Cc1ccc(Cl)cc1)C(=O)N[C@H](Cc1cccnc1)C(=O)N[C@@H](CO)C(=O)N(C)[C@@H](Cc1ccc(O)cc1)C(=O)N[C@H](CCCCNC(=O)CNC(=O)c1cccnc1)C(=O)N[C@@H](CC(C)C)C(=O)N[C@@H](CCCNC(=N)N)C(=O)N1CCC[C@H]1C(=O)N[C@H](C)C(N)=O [Example 10] (Ac-[d2Nal][dPhe(4-Cl)][d3Pal]S[NMeY][dK]([Gly-Nicotinoyl])LRP[dA]-NH2)", "Experimental endpoint": "Kb", "Endpoint result": "0.00501 nM"}
{"Compound": "CC(=O)N[C@H](Cc1ccc2ccccc2c1)C(=O)N[C@H](Cc1ccc(Cl)cc1)C(=O)N[C@H](Cc1cccnc1)C(=O)N[C@@H](CO)C(=O)N(C)[C@@H](Cc1ccc(O)cc1)C(=O)N[C@H](CCCCNC(=O)CNC(=O)c1ccco1)C(=O)N[C@@H](CC(C)C)C(=O)N[C@@H](CCCNC(=N)N)C(=O)N1CCC[C@H]1C(=O)N[C@H](C)C(N)=O [Example 18] (Ac-[d2Nal][dPhe(4-Cl)][d3Pal]S[NMeY][dK]([Gly-2Furoyl])LRP[dA]-NH2)", "Experimental endpoint": "Kb", "Endpoint result": "0.00309 nM"}
{"Compound": "CC(=O)N[C@H](Cc1ccc2ccccc2c1)C(=O)N[C@H](Cc1ccc(Cl)cc1)C(=O)N[C@H](Cc1cccnc1)C(=O)N[C@@H](CO)C(=O)N(C)[C@@H](Cc1ccc(O)cc1)C(=O)N[C@H](CCCCNC(=O)CNC(=O)CNC(=O)c1cccnc1)C(=O)N[C@@H](CC(C)C)C(=O)N[C@@H](CCCCNC(C)C)C(=O)N1CCC[C@H]1C(=O)N[C@H](C)C(N)=O [Example 19c] (Ac-[d2Nal][dPhe(4-Cl)][d3Pal]S[NMeY][dK]([Gly-Gly-Nicotinoyl])L[Lys(iPr)]P[dA]-NH2)", "Experimental endpoint": "Kb", "Endpoint result": "0.00331 nM"}
{"Compound": "CC(=O)N[C@H](Cc1ccc2ccccc2c1)C(=O)N[C@H](Cc1ccc(Cl)cc1)C(=O)N[C@H](Cc1cccnc1)C(=O)N[C@@H](CO)C(=O)N(C)[C@@H](Cc1ccc(O)cc1)C(=O)N[C@H](CCCCNC(=O)CCCCCNC(=O)CCNC(=O)c1cccnc1)C(=O)N[C@@H](CC(C)C)C(=O)N[C@@H](CCCCNC(C)C)C(=O)N1CCC[C@H]1C(=O)N[C@H](C)C(N)=O [Example 19a] (Ac-[d2Nal][dPhe(4-Cl)][d3Pal]S[NMeY][dK]([Ahx-βAla-Nicotinoyl])L[Lys(iPr)]P[dA]-NH2)", "Experimental endpoint": "Kb", "Endpoint result": "0.024 nM"}
{"Compound": "CC(=O)N[C@H](Cc1ccc2ccccc2c1)C(=O)N[C@H](Cc1ccc(Cl)cc1)C(=O)N[C@H](Cc1cccnc1)C(=O)N[C@@H](CO)C(=O)N(C)[C@@H](Cc1ccc(O)cc1)C(=O)N[C@H](CCCCNC(=O)[C@@H](Cc1cn(C=O)c2ccccc12)NC(=O)C1=C[C@@H](O)[C@@H](O)[C@H](O)C1)C(=O)N[C@@H](CC(C)C)C(=O)N[C@@H](CCCNC(=N)N)C(=O)N1CCC[C@H]1C(=O)N[C@H](C)C(N)=O [Example 65a] (Ac-[d2Nal][dPhe(4-Cl)][d3Pal]S[NMeY][dK](X3)LRP[dA]-NH2)", "Experimental endpoint": "Kb", "Endpoint result": "0.0251 nM"}

API: value(readout= Kb, system= LHRH receptor (Rattus norvegicus, UniProt P30969), query= CC(=O)N[C@H](Cc1ccc2ccccc2c1)C(=O)N[C@H](Cc1ccc(Cl)cc1)C(=O)N[C@H](Cc1cccnc1)C(=O)N[C@@H](CO)C(=O)N(C)[C@@H](Cc1ccc(O)cc1)C(=O)N[C@H](CCCCNC(=O)CNC(=O)C1=C[C@@H](O)[C@@H](O)[C@H](O)C1)C(=O)N[C@@H](CC(C)C)C(=O)N[C@@H](CCCCNC(C)C)C(=O)N1CCC[C@H]1C(=O)N[C@H](C)C(N)=O [Example 6b] (Ac-[d2Nal][dPhe(4-Cl)][d3Pal]S[NMeY][dK]([Gly-Shikimoyl])L[Lys(iPr)]P[dA]-NH2) )
0.024 nM

API: value(readout= Kb, system= LHRH receptor (Rattus norvegicus, UniProt P30969), query= CC(=O)N[C@H](CO)C(=O)NCCCC[C@@H](NC(=O)[C@H](Cc1ccc(O)cc1)N(C)C(=O)[C@H](CO)NC(=O)[C@@H](Cc1cccnc1)NC(=O)[C@@H](Cc1ccc(Cl)cc1)NC(=O)[C@@H](Cc1ccc2ccccc2c1)NC(C)=O)C(=O)N[C@@H](CC(C)C)C(=O)N[C@@H](CCCCNC(=N)N)C(=O)N1CCC[C@H]1C(=O)N[C@H](C)C(N)=O [Example 13] (Ac-[d2Nal][dPhe(4-Cl)][d3Pal]S[NMeY][dK]([dS-Ac])L[hArg]P[dA]-NH2) )
0.00794 nM

API: value(readout= Kb, system= LHRH receptor (Rattus norvegicus, UniProt P30969), query= CC(=O)N[C@H](Cc1ccc2ccccc2c1)C(=O)N[C@H](Cc1ccc(Cl)cc1)C(=O)N[C@H](Cc1cccnc1)C(=O)N[C@@H](CO)C(=O)N(C)[C@@H](Cc1ccc(O)cc1)C(=O)N[C@H](CCCCNC(=O)NCCNC(=O)c1cccnc1)C(=O)N[C@@H](CC(C)C)C(=O)N[C@@H](CCCCNC(C)C)C(=O)N1CCC[C@H]1C(=O)N[C@H](C)C(N)=O [Example 62] (Ac-[d2Nal][dPhe(4-Cl)][d3Pal]S[NMeY][dK]([CO-Ethylenediamine-Nicotinoyl])L[Lys(iPr)]P[dA]-NH2) )
0.0263 nM
